Each entry below carries its reported CRF1R Emax %.
Target: CRF1R; also: reference of the scale not given here
Experiment: cell-based or functional assay
reportedEndpoint: CRF1R Emax % (%)

{"binder": "ZGPPISIDLPWWLLRKMIEIEKQEKEKQQAANNRLLLDTI (C-terminal amide) [SEQ ID NO 216]", "quantitativeResult": 98}
{"binder": "ZGPPISIDVPYHLLRKVIEIEKQEKEKQQAANNARLLDTI (C-terminal amide) [SEQ ID NO 376]", "quantitativeResult": 8}
{"binder": "ZGPPISIDVPLQLLRKVIEIEKQEKEKQQAANNARLLARI (C-terminal amide) [SEQ ID NO 381]", "quantitativeResult": 27}
{"binder": "ZGPPISIDLPFQLLRKVIEIEKQEKEKQQAANNAELLAEI (not fully specified; C-terminal amide) [SEQ ID NO 272]", "quantitativeResult": 51.1}
{"binder": "ZGPPISIDLPYWLLRKMIEIEKQEKEKQQAANNRLLLDTI (C-terminal amide) [SEQ ID NO 215]", "quantitativeResult": 100}
{"binder": "ZGPPISIDVPYQLLRKVIEIEKQEKEKQQAANNARLLARI (C-terminal amide) [SEQ ID NO 375]", "quantitativeResult": 22}

Value source: patent US20030148958A1
